Reported pIC50 values are given for each entry in this list.
Target: T1, human calcitonin receptor (human, UniProt P30988 25-474)
T1 construct: whole, on cells; Membranes in a scintillation proximity assay (Assay VII); also called hCTR; hCT
T1 sequence (looked up): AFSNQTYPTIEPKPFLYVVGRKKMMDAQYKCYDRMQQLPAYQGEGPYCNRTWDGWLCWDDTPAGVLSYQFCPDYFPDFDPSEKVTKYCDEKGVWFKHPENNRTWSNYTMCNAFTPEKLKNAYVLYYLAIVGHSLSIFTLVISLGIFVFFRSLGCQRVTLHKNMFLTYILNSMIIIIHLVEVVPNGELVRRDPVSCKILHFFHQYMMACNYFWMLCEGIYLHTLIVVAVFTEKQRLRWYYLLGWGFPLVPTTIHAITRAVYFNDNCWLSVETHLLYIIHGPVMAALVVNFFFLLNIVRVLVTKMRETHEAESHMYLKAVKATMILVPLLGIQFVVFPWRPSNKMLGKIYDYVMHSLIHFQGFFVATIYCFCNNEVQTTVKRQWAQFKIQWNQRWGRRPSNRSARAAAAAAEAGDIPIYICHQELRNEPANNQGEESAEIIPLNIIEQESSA
Test: SPA competition binding, displacement of 125I-calcitonin from membranes with human calcitonin receptor (Assay VII)
pIC50: −log10 of the molar value. Numbered stars: 1 amine (or outer) side, 2 acyl side, 3 side chain; on linkers, the order of the positions; unused ones are H or OH. Bridge positions count the residues as written; N and C are the ends. Square brackets hold non-standard residues; d marks the D form. Side chains are listed from the residue outwards. Ends that are not written are not given here. * marks the point of attachment. C20 diacid = O=C(O)CCCCCCCCCCCCCCCCCCC(=O)*; γGlu = O=C(O)[C@H](CCC(=O)[*:2])N[*:1]
reported_endpoint: pIC50

binder | number
K([γGlu-C20 diacid])CNTATCATQRLAEFLRHSSPNFGAIPSSTNVGSHTY-NH2 (disulfide 2-7 (inferred)) | 7.58
K([γGlu-γGlu-C20 diacid])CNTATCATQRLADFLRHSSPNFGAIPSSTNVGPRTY-NH2 (disulfide 2-7 (inferred), also called compound 130) | 6.90
K([γGlu-γGlu-C20 diacid])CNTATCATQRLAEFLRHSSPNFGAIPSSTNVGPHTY-NH2 (disulfide 2-7 (inferred)) | 7.99
K([γGlu-γGlu-C20 diacid])CNTATCATQRLAEFLRHSSPNFGAIPSSTNVGPNTF-NH2 (disulfide 2-7 (inferred)) | 8.56
K([γGlu-C20 diacid])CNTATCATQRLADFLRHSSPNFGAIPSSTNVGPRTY-NH2 (disulfide 2-7 (inferred)) | 7.37
K([γGlu-γGlu-C20 diacid])CNTATCATQRLA[dD]FLRHSSPNFGAIPSSTNVGSRTY-NH2 (disulfide 2-7 (inferred)) | 6.95
K([γGlu-C20 diacid])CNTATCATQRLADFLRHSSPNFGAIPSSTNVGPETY-NH2 (disulfide 2-7 (inferred)) | 8.49
